Target: human TLR9 (Homo sapiens)
Sequence (Q9NR96 26-1032): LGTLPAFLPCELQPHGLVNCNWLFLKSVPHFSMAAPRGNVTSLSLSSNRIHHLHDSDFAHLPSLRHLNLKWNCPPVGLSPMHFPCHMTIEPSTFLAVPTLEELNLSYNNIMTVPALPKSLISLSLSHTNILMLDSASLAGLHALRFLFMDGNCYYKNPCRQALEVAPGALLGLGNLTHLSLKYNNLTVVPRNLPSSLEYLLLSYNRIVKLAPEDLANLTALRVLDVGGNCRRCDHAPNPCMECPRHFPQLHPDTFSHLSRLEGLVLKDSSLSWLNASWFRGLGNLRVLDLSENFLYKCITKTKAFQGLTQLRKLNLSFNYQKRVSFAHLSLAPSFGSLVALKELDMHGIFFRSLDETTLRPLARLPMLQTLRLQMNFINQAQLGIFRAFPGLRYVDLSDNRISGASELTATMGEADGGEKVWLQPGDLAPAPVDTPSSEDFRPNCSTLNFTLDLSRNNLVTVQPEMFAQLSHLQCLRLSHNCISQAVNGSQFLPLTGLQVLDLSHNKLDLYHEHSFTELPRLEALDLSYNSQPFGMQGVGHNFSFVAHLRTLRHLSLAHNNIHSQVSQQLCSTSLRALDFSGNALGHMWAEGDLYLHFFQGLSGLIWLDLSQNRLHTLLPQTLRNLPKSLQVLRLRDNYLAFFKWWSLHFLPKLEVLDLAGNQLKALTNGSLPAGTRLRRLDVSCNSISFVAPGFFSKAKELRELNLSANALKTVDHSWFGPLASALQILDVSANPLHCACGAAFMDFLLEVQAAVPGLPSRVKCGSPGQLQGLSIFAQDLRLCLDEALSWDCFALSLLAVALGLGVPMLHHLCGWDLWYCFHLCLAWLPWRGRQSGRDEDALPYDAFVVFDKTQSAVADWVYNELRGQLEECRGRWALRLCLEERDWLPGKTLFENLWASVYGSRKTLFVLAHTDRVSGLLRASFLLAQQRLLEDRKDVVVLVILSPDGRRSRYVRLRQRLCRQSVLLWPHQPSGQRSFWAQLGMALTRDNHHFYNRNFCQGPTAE
Experiment: TLR9 inhibition reporter assay (HEK-Blue cells, SEAP reporter, ODN2006 stimulation)
Details: HEK-Blue cells overexpressing human TLR9, SEAP reporter, ODN2006 5 nM
pIC50: −log10 of the molar value.
REPORTED_PROPERTY: pIC50

MOLECULE | pIC50
CC(C)c1c(-c2ccnc3[nH]ncc23)[nH]c2ccc(CC3CCNCC3)cc12 [Example 424] | 5.68
Cc1c(-c2[nH]c3ccc(C4CC(N)C4)cc3c2C(C)C)cn2ncnc2c1C (centres unmarked) [Example 542] | 5.29

A. Cc1cc(-c2[nH]c3ccc(C4CCC(NC(=O)CN(C)C)CC4)cc3c2C(C)C)cn2ncnc12 (centres unmarked) [Example 121]
B. Cc1cc(-c2[nH]c3ccc(C4CN(C5COC5)C4)cc3c2C(C)C)cn2ncnc12 [Example 271]
C. CCN(C)C1CCC(c2ccc3[nH]c(-c4cn5ncnc5c(C)c4C)c(C(C)C)c3c2)CC1 (centres unmarked) [Example 87]
D. Cc1cc(-c2[nH]c3ccc(C4CCCN(C(=O)C5(C)CC5)C4)cc3c2C(C)C)cc(C)n1 (centres unmarked) [Example 202]
Problem: Give the ascending ranking of the items by reported pIC50. Your answer should be the labels, listed in the requested order.
Result: B, D, A, C
(B: 4.54, D: 4.91, A: 5.15, C: 5.72)
